method: mouse liver microsomal stability assay
Format: in vitro ADME
measurement.context: pH 7.4; mouse liver microsomes 0.5 mg/mL; test compound 2 μmol/L; 37° C., 0-30 min; read-out: Hepatic intrinsic clearance, Mouse
property: microsomal CLint at 2 μmol/L (µL/min/mg)
Report the value in µL/min/mg with no unit label.

Find the recorded microsomal CLint at 2 μmol/L belonging to COc1ccc(-n2nc(C3(O)CCN(C(=O)N(C)O)CC3)c(F)c2-c2ccc(C)cc2)cc1 [Comparative Example 29, reference compound] and report it.
267

----------
Reported log10 of microsomal CLint at 2 μmol/L values for a set of molecules
method: human liver microsomal stability assay
Assay type: in vitro ADME
measurement.context: liver microsomes, pH 7.4, human liver microsomes 0.5 mg/mL, test compound 2 μmol/L, 37° C., 0-30 min, read-out: Human hepatic intrinsic clearance
log10 microsomal CLint at 2 μmol/L, µL/min/mg

- molecule: "COc1ccc(-n2nc(C3(O)CCC(O)CC3)cc2-c2ccc(C)cc2)cc1 (centres unmarked) [Example 2-A]"
  property: "log10 of microsomal CLint at 2 μmol/L"
  readout.value: 1.65
- molecule: "COc1ccc(-c2cc(C3(O)CCC(O)CC3)nn2-c2ccc(OC)cc2)cc1 (single isomer, unassigned) [Example 4-B]"
  property: "log10 of microsomal CLint at 2 μmol/L"
  readout.value: 0.94
- molecule: "COc1ccc(-c2nc(C3(O)CCC(O)CC3)oc2-c2ccc(OC)cc2)cc1 (single isomer, unassigned) [Example 67-B]"
  property: "log10 of microsomal CLint at 2 μmol/L"
  readout.value: 1.10

Find the recorded log10 of microsomal CLint at 2 μmol/L belonging to COc1ccc(-n2nc(C3(O)CCC(O)CC3)cc2-c2ccc(C)cc2)cc1F (centres unmarked) [Example 30] and report it.
0.59

Moving on to the next molecule: CCc1ccc(-c2cc(C3(O)CCC(O)CC3)nn2-c2ccc(OC)cc2)cc1 (centres unmarked) [Example 28]
0.50

Moving on to the next molecule: COc1ccc(-n2nc(C3(O)CCC(C(=O)O)CC3)cc2-c2ccc(C)cc2)cc1 (centres unmarked) [Example 64]
0.31

Moving on to the next molecule: COc1ccc(-n2nc(C3(O)CCC(O)CC3)c(Cl)c2-c2ccc(C)cc2)cc1 (centres unmarked) [Example 59]
1.65

Moving on to the next molecule: COc1ccc(-n2nc(C3(O)CCC(O)(C(F)(F)F)CC3)cc2-c2ccc(C)cc2)cc1 (centres unmarked) [Example 62]
1.52

----------
method: human liver microsomal stability assay
Format: in vitro ADME
measurement.context: liver microsomes, pH 7.4, human liver microsomes 0.5 mg/mL, test compound 2 μmol/L, 37° C., 0-30 min, read-out: Hepatic intrinsic clearance, Human
property: microsomal CLint at 2 μmol/L (µL/min/mg)
Report the value in µL/min/mg with no unit label.

Find the recorded microsomal CLint at 2 μmol/L belonging to COc1ccc(-n2nc(C3(O)CCN(C(=O)N(C)O)CC3)c(F)c2-c2ccc(C)cc2)cc1 [Comparative Example 29, reference compound] and report it.
110

----------
method: pharmacokinetics (PK) test in mice
Format: in vivo
measurement.context: mouse, plasma; female CD1 (ICR) mice, fasted; oral vs intravenous administration; from dose-normalized AUC0-24 hr; read-out: bioavailability (BA)
property: bioavailability (%)
Report the value in % with no unit label.

- compound: "COc1ccc(-n2nc(C3(O)CCN(C(=O)N(C)O)CC3)c(F)c2-c2ccc(C)cc2)cc1 [Comparative Example 29, reference compound]"
  unit.tag: "%"
  bioavailability: 54

Kindly consider the entry below.
Find the recorded bioavailability belonging to COc1ccc(-n2nc(C3(O)CCC(O)CC3)cc2-c2ccc(C)cc2)cc1 (centres unmarked) [Example 2-B] and report it.
88

Source listed as patent US8247569B2.
